Taken from PubChem BioAssay AID1852.

# EXPERIMENT_SUMMARY: TNF-a-driven NF-kB reporter inhibitors, primary screen, selectivity assay for NOD1/NOD2 signaling inhibitor project, cell-based, HEK293T NF-kB-Luc, luminescence (AID 1852)
# CONDITION_CONTEXT: TNF-a induced, 14 h, at 4 µM, stronger effect = higher value
The whole screen tested about 2,500 compounds, of which about 1,100 (44%) were called active. The set was probably picked from earlier hits. Some of the results follow.
Below, each of the compounds is paired with its reported inhibition value.
MEASUREMENT_TYPE: inhibition

FC(F)(F)c1cnc(NNC(=S)Nc2ccccc2Cl)c(Cl)c1
-6.8% (inactive)
Cc1ccc(-n2ncc(Br)c(Br)c2=O)cc1
105% (active)
O=C(N/N=C1/C(=O)c2cccc3cccc1c23)c1ccc(Cl)cc1
81% (active)
C[C@@H]1C[C@@H]2O[C@H]2/C=C\C=C\C(=O)Cc2c(Cl)c(O)cc(O)c2C(=O)O1
96.5% (active)
COc1ccc(CN(C)C(=O)c2cc(-c3ccc(C)cc3C)nc3ccccc23)c(OC)c1OC
-3.9% (inactive)
O=[N+]([O-])c1ccc(NC(=S)NCc2ccc(F)cc2)cc1
22.1% (inactive)
O=C(Nc1ccc(Br)cc1)c1ccc(F)c(S(=O)(=O)N2CCN(c3ccccn3)CC2)c1
36.8% (inactive)
COc1cccc(OCc2cc(C(=O)NCc3cnc4ccccn34)no2)c1
4.4% (inactive)
Cc1ccc(C)c(OCc2cc(C(=O)NC3CCN(Cc4ccccc4)CC3)no2)c1
22.7% (inactive)
CSc1ccccc1OCc1cc(C(=O)N2CCC(c3ccncc3)CC2)no1
29.9% (inactive)
O=C(NN=C1c2ccccc2-c2ccccc21)c1cccc(Br)c1
21.6% (inactive)
COCCOC(=O)c1[nH]c2c(c1C)C(=O)CC(c1cc(OC)c(OC)c(OC)c1)C2 (stereo not drawn)
58.3% (active)
Cc1c(C(=O)N2CCN(c3ccc(F)cc3)CC2)sc2ncnc(N3CCN(c4ccccn4)CC3)c12
15.6% (inactive)
Fc1ccc(NC(=S)Nc2nccs2)cc1
73.6% (active)
CCN(CC)C(=O)C1CCCN(C(=O)c2cc(COc3ccc4ncccc4c3)on2)C1 (stereo not drawn)
36% (inactive)
CCNC(=O)/C(C#N)=C/c1c(N2CCN(c3cccc(Cl)c3)CC2)nc2c(C)cccn2c1=O
-19.8% (inactive)
O=C(Nc1ccc(N2CCN(C(=O)c3ccccc3F)CC2)cc1)c1cncc(Br)c1
72.9% (active)
CCOC(=O)c1csc(Nc2nc3ccc(F)cc3s2)n1
106% (active)
COc1cc2ncnc(NCc3ccc(C)cc3)c2cc1OC
0.3% (inactive)
CCCCOC(=O)c1[nH]c2c(c1C)C(=O)CC(c1cc(OC)c(OC)c(OC)c1)C2 (stereo not drawn)
47.1% (inactive)
COc1ccccc1-c1nnc(SCC(=O)Nc2nc(-c3ccccc3)cs2)n1C
31.2% (inactive)
CN(C)c1ccnc2sc(C(N)=O)c(N)c12
83.5% (active)
O=C(Cc1ccc(Br)cc1)Nc1ncc([N+](=O)[O-])s1
23.8% (inactive)
COCC1CCN(C(=O)c2cc(COc3ccc4ncccc4c3)on2)CC1
40.2% (inactive)
COc1ccc2c(c1OC)C(=O)OC2Nc1nc(-c2ccccc2)cs1 (stereo not drawn)
62.2% (active)
Cc1ccc(C)c(N2CCN(C(=S)Nc3ccc4nc(N5CCOCC5)cc(C)c4c3)CC2)c1
45.9% (inactive)
S=C(NNc1ccnc2cc(Cl)ccc12)Nc1ccc(Cl)cc1Cl
43.7% (inactive)
COc1ccc(-c2csc3nc(-c4ccccc4)oc(=O)c23)cc1OC
-3.3% (inactive)
Cc1ccc(-c2csc(NC3OC(=O)c4ccccc43)n2)cc1 (stereo not drawn)
74.1% (active)
COc1ccc(CNc2ncnc3sccc23)cc1OC
50.2% (active)
COc1ccccc1-c1nc(C#N)c(N2CCN(c3cccc(Cl)c3)CC2)o1
-20.8% (inactive)
Cc1ccc(NC(=O)Nc2nnc(-c3ccncc3)s2)cc1C
43.3% (inactive)
COCC1CCCN(C(=O)c2cc(COc3ccc4ncccc4c3)on2)C1 (stereo not drawn)
33.2% (inactive)
Cc1ccc(NC(=O)c2ccc(S(=O)(=O)NCC3CCCO3)cc2)cc1C (stereo not drawn)
4.7% (inactive)
CC(C)c1ccc(-c2nnn(CCC(=O)O)n2)cc1
49.4% (inactive)
COc1ccccc1N1CCN(C(=S)Nc2ccc3nc(N4CCOCC4)cc(C)c3c2)CC1
38.6% (inactive)
COc1cc(/C=C2\C(=N)N3N=C(S(C)(=O)=O)SC3=NC2=O)ccc1OCCOc1ccc(C)cc1
-39.5% (inactive)
O=C(c1cc(COc2cccc3cnccc23)on1)N1CCCC(CCCO)C1 (stereo not drawn)
61.6% (active)
O=C(Nc1ccc(N2CCN(Cc3ccccc3F)CC2)cc1)c1ccc([N+](=O)[O-])o1
20% (inactive)
COc1ccc(-c2cc(C)no2)cc1S(=O)(=O)N1CCN(c2ccccc2F)CC1
49.7% (inactive)
COC(=O)c1ccc2nc(Nc3nc4ccc(F)cc4s3)sc2c1
0% (inactive)
S=C(NNc1ccnc2cc(Cl)ccc12)Nc1ccccc1Cl
64.6% (active)
Cc1c(C(C)NC(=O)c2cc(COc3cccc4cnccc34)on2)cnn1C (stereo not drawn)
53.8% (active)

* * *

Quick reference for inhibition among some compounds
# EXPERIMENT_SUMMARY: TNF-a-driven NF-kB reporter inhibitors, primary screen, selectivity assay for NOD1/NOD2 signaling inhibitor project, cell-based, HEK293T NF-kB-Luc, luminescence (AID 1852)
# CONDITION_CONTEXT: TNF-a induced, 14 h, at 4 µM, stronger effect = higher value
About 1,100 (44%) of roughly 2,500 compounds were called active. So high a share suggests a set chosen from earlier hits. The list shows a part of the results.
MEASUREMENT_TYPE: inhibition (%)

Cc1ccc2c(C(=O)CCl)c(C)[nH]c2c1
83.2
C=CCN(c1ccccc1OC)S(=O)(=O)c1ccc(Cl)c(C(=O)Nc2ccc(N3CCOCC3)cc2)c1
25.4
COc1ccc(NC(=O)/C(Cl)=C(/Cl)S(=O)Cc2ccccc2)cn1 (configuration not stated)
104
COc1ccc(CS(=O)/C(Cl)=C(/Cl)C(=O)Nc2ccc(OC)nc2)cc1 (configuration not stated)
101
COc1cccc(C(=O)Nc2nc(-c3ccccc3)c(-c3ccccc3)o2)c1
81.3
Cc1oc(-c2cc(F)ccc2F)nc1CN1CCN(c2ncnc3ccccc23)CC1
104
Cc1nc(SCC(=O)Nc2nc3ccccc3s2)c(C#N)c(C)c1C
61.7
O=C(Nc1ccc(OC(F)F)cc1)Nc1cccc(C(F)(F)F)c1
14.2
CN(C(=O)COc1ccccc1C(=O)NCCOc1ccccc1)c1ccccc1
17.7
CCOC(=O)c1c(C)[nH]c(C)c1C(=O)CSc1nc2ccccc2c(=O)n1-c1ccc(CC)cc1
-1.6
Cc1cccc2cc3c(N)c(C(=O)Nc4ccc(N5CCOCC5)cc4)sc3nc12
36.4
CCN(CC)S(=O)(=O)c1ccc(NC(=O)Nc2cccc(C(F)(F)F)c2)cc1
10.5
CCOc1ccccc1C(=O)N1CCN(C(c2ccccc2)c2ccccc2)CC1
22.1
COc1cc(OC)cc(C(=O)Nc2nc(-c3ccccc3)c(-c3ccccc3)o2)c1
78.7
Cc1noc(C)c1S(=O)(=O)N1CCCC(C(=O)NCc2ccccc2Cl)C1 (configuration not stated)
21.1
Cc1[nH]c2ccccc2c1C(=O)CCl
95.3
O=C(Cc1ccc(Cl)cc1)Nc1ncc([N+](=O)[O-])s1
16.3
O=C(NNC(=O)c1ccccc1OCc1ccccc1)c1ccccc1O
77.9
O=C(Nc1sc2c(c1C(=O)O)CCCC2)c1ccccc1Cl
25
COc1ccc(NC(=O)/C(Cl)=C(/Cl)S(=O)Cc2ccc(Cl)cc2)cn1 (configuration not stated)
89
Cc1oc(-c2cccc3ccccc23)nc1CN1CCN(c2ncnc3ccccc23)CC1
43
CN(C)S(=O)(=O)Oc1cccc(C(=O)Nc2ccc(Cl)c(Cl)c2)c1
-28.2

* * *

# EXPERIMENT_SUMMARY: TNF-a-driven NF-kB reporter inhibitors, primary screen, selectivity assay for NOD1/NOD2 signaling inhibitor project, cell-based, HEK293T NF-kB-Luc, luminescence (AID 1852)
# CONDITION_CONTEXT: TNF-a induced, 14 h, at 4 µM, stronger effect = higher value
Among all 2,500 compounds or so, about 1,100 (44%) were called active. The set was probably picked from earlier hits. The list shows a part of the results.
Think of -10% as a floor: if inhibition stands on it or above, it is fulfilled; beneath it, not fulfilled.

CS(=O)(=O)N1CCC(C(=O)Nc2cccc(Cl)c2)CC1
fulfilled
COc1ccc(-c2nnc(NC(=O)c3ccc(S(=O)(=O)N4CCc5ccccc5C4)cc3)o2)cc1
fulfilled
Cn1ncc([N+](=O)[O-])c1C(=O)Nc1ccc(-c2ccccc2)cc1
not fulfilled
O=C(Nc1nnc(-c2ccc(F)cc2)o1)c1cccc([N+](=O)[O-])c1
fulfilled
O=C(NNC(=S)NC(=O)c1cccc([N+](=O)[O-])c1)c1ccc(Br)cc1
not fulfilled
